These data points were gathered from patent US12122778B2.

Target: PKR(wt) (Homo sapiens, UniProt P30613)
Sequence (P30613 whole entry): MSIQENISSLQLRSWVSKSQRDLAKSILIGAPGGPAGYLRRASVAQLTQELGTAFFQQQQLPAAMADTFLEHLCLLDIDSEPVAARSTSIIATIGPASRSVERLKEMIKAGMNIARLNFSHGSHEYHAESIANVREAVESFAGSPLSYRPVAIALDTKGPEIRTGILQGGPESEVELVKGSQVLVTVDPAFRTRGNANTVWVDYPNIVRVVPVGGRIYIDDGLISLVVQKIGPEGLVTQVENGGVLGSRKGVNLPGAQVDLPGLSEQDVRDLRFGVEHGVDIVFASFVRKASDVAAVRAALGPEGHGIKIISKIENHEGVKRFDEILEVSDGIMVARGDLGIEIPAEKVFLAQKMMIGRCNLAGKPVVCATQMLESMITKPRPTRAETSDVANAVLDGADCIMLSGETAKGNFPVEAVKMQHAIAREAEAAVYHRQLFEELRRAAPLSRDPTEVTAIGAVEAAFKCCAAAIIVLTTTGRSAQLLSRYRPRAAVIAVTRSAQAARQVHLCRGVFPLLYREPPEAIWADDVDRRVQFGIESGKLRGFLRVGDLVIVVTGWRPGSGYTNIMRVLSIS
Assay: Luminescence Biochemical Assay (Kinase Glo Plus), wild type PKR
Conditions: without FBP, 1.54 μM compound, read-out: AC50 LUM KGP woFBP % Fold@1.54 μM mean
Field: activation at 1.54 µM. Provide a value for each of the compounds that follow.

Given the compound O=C([C@H](O)c1ccccc1)N1CC2=C(C1)CN(S(=O)(=O)c1cccnc1C(F)(F)F)C2 [Example 4-2] , what is its reported activation at 1.54 µM?
75 to 250%

// next record O=C([C@H](O)c1ccc2c(c1)CNCC2)N1CC2=C(C1)CN(S(=O)(=O)c1ccc(OC(F)F)cc1)C2 (single isomer, unassigned) [Example 11-2]
75 to 250%

// next record O=C(c1cnc(C(F)(F)F)nc1)N1CC2=C(C1)CN(S(=O)(=O)c1ccc3occc3c1)C2 [Example 18-86]
75 to 250%

// next record Cc1nc(CC(=O)N2CC3=C(C2)CN(S(=O)(=O)c2ccccn2)C3)cs1 [Example 18-68]
75 to 250%

// next record NS(=O)(=O)c1cccc(S(=O)(=O)N2CC3=C(CN(C(=O)[C@H](O)c4ccccc4)C3)C2)c1 [Example 17-1]
75 to 250%

// next record CN1CCOc2ccc([C@H](O)C(=O)N3CC4=C(C3)CN(S(=O)(=O)c3ccc(OC(F)F)cc3)C4)cc21 (single isomer, unassigned) [Example 10-2]
250 to 50000%

// next record O=C(Cc1ccc[nH]1)N1CC2=C(C1)CN(S(=O)(=O)c1cccnc1)C2 [Example 18-73]
75 to 250%

// next record O=C(NC1CCOC1)N1CC2=C(C1)CN(S(=O)(=O)c1ccc3occc3c1)C2 (stereo not drawn) [Example 3-2]
75 to 250%

// next record O=C(CCC(F)F)N1CC2=C(C1)CN(S(=O)(=O)c1ccc3occc3c1)C2 [Example 1-2]
75 to 250%

// next record O=C(NCc1ccc(F)cc1)N1CC2=C(C1)CN(S(=O)(=O)c1ccc3ncsc3c1)C2 [Example 21-19]
75 to 250%

// next record CC(C)(O)C(=O)N1CC2=C(C1)CN(S(=O)(=O)c1ccc3occc3c1)C2 [Example 1-3]
75 to 250%

// next record O=C(C1OCCc2ccccc21)N1CC2=C(C1)CN(S(=O)(=O)c1ccc(OC(F)F)cc1)C2 (stereo not drawn) [Example 18-33]
75 to 250%

// next record O=C(NCc1ccc(F)cc1)N1CC2=C(C1)CN(S(=O)(=O)c1ccc(OC(F)F)cc1)C2 [Example 21-13]
250 to 50000%

// next record Cc1cccc(CNC(=O)N2CC3=C(C2)CN(S(=O)(=O)c2ccc4ncsc4c2)C3)n1 [Example 21-32]
250 to 50000%

// next record O=C([C@H](O)c1ccc(F)cc1)N1CC2=C(C1)CN(S(=O)(=O)c1ccc(OC(F)F)cc1)C2 [Example 18-31]
250 to 50000%

// next record O=C(NCc1ccccc1F)N1CC2=C(C1)CN(S(=O)(=O)c1ccc(C(F)(F)F)nc1)C2 [Example 21-40]
75 to 250%

// next record O=C(Cc1ccccn1)N1CC2=C(C1)CN(S(=O)(=O)c1ccc(OC(F)F)cc1)C2 [Example 8-1]
250 to 50000%

// next record Cc1cnc(C(=O)N2CC3=C(C2)CN(S(=O)(=O)c2ccc4occc4c2)C3)cn1 [Example 18-82]
75 to 250%

// next record O=C([C@H](O)c1ccccc1)N1CC2=C(C1)CN(S(=O)(=O)c1cc(F)ccc1Cl)C2 [Example 18-57]
75 to 250%

// next record O=C([C@@H]1CCCO1)N1CC2=C(C1)CN(S(=O)(=O)c1ccccn1)C2 [Example 18-69]
75 to 250%

// next record O=C([C@H](O)c1ccccc1)N1CC2=C(C1)CN(S(=O)(=O)c1cccc(C(F)(F)F)c1)C2 [Example 18-49]
75 to 250%

// next record Cc1ccc(S(=O)(=O)N2CC3=C(CN(C(=O)[C@H](O)c4ccccc4)C3)C2)cc1F [Example 18-51]
75 to 250%

// next record COc1ccc(CNC(=O)N2CC3=C(C2)CN(S(=O)(=O)c2ccc(OC(F)F)cc2)C3)cc1 [Example 21-10]
250 to 50000%

// next record COc1cccc(CNC(=O)N2CC3=C(C2)CN(S(=O)(=O)c2ccc(OC(F)F)cc2)C3)c1 [Example 21-11]
250 to 50000%

// next record CC[C@@H](O)C(=O)N1CC2=C(C1)CN(S(=O)(=O)c1ccc3c(c1)N(C)CCO3)C2 [Example 18-76]
75 to 250%

// next record O=C(c1ccc(OCC(F)(F)F)nc1)N1CC2=C(C1)CN(S(=O)(=O)c1ccc3occc3c1)C2 [Example 18-81]
250 to 50000%

// next record O=C(Cc1cccnc1)N1CC2=C(C1)CN(S(=O)(=O)c1ccc(OC(F)F)cc1)C2 [Example 18-26]
250 to 50000%

###

Molecular target: PKR(wt) (Homo sapiens)
Test: Luminescence Biochemical Assay (Kinase Glo Plus), wild type PKR
Settings: without FBP, 1.54 μM compound, read-out: AC50 LUM KGP woFBP % Fold@1.54 μM mean
Procedure: In some embodiments, a PKR Activating Compound can have: (1) an AC50 value of less than 0.1 μM (e.g., compounds with AC50 values of “+++” in Table 13), 0.1-1.0 μM (e.g., compounds with AC50 values of “++” in Table 13), or 1.01-40 μM (e.g., compounds with AC50 values of “+” in Table 13); (2) a MAX % Fold of 75%-250%, 250-500%, or 75%-500%; and/or (3) a % Fold@1.54 μM of 75%-250%, 250-500%, or 75%-500%. […]
Field: activation at 1.54 µM. Provide a value for each of the compounds that follow.

Please provide the recorded activation at 1.54 µM for O=C(OCc1cccc(F)c1)N1CC2=C(C1)CN(S(=O)(=O)c1ccc3occc3c1)C2 [Example 22-6] , tested on PKR(wt) (Homo sapiens).
250 to 50000%

// next record O=C(OCC1CC1)N1CC2=C(C1)CN(S(=O)(=O)c1ccc(OC(F)F)cc1)C2 [Example 22-2]
75 to 250%

// next record O=C(N1CC2=C(C1)CN(S(=O)(=O)c1ccccn1)C2)C1(O)CC1 [Example 18-65]
75 to 250%

// next record Cc1cc(CNC(=O)N2CC3=C(C2)CN(S(=O)(=O)c2ccc4ncsc4c2)C3)on1 [Example 21-9]
75 to 250%

// next record Cc1cc(CNC(=O)N2CC3=C(C2)CN(S(=O)(=O)c2ccc(OC(F)F)cc2)C3)on1 [Example 21-6]
250 to 50000%

// next record O=C([C@H](O)c1ccccc1)N1CC2=C(C1)CN(S(=O)(=O)c1cccc(OC(F)F)c1)C2 [Example 18-15]
75 to 250%

###

Molecular target: PKR(wt) (Homo sapiens)
Assay: Luminescence Biochemical Assay (Kinase Glo Plus), wild type PKR
Conditions: without FBP, read-out: AC50 LUM KGP woFBP AC50 μM gmean
Field: AC50. Provide a value for each of the compounds that follow.

Given the compound `O=C([C@@H]1CCCO1)N1CC2=C(C1)CN(S(=O)(=O)c1ccccn1)C2` , what is its reported AC50?
1 to 40 µM

// next record `O=C([C@H]1CCCO1)N1CC2=C(C1)CN(S(=O)(=O)c1cccnc1)C2`
1 to 40 µM

// next record `Cc1cccc(S(=O)(=O)N2CC3=C(CN(C(=O)NCc4ccccc4F)C3)C2)n1`
≤ 0.1 µM

// next record `O=C(NCc1ccc(F)cc1)N1CC2=C(C1)CN(S(=O)(=O)c1ccc3ncsc3c1)C2`
0.1 to 1 µM

// next record `CC(C)Oc1ccc(S(=O)(=O)N2CC3=C(CN(C(=O)[C@H](O)c4ccccc4)C3)C2)cc1`
0.1 to 1 µM

// next record `O=C([C@H](O)c1ccccc1)N1CC2=C(C1)CN(S(=O)(=O)c1cccnc1)C2`
0.1 to 1 µM

// next record `O=C(NCc1ncco1)N1CC2=C(C1)CN(S(=O)(=O)c1ccc3ncsc3c1)C2`
0.1 to 1 µM

// next record `CN1CCOc2ccc(S(=O)(=O)N3CC4=C(CN(C(=O)C5CCCC5)C4)C3)cc21`
1 to 40 µM

// next record `O=C(NCc1ccccc1F)N1CC2=C(C1)CN(S(=O)(=O)c1ccccn1)C2`
0.1 to 1 µM

// next record `COc1cc(Cl)ccc1S(=O)(=O)N1CC2=C(CN(C(=O)[C@H](O)c3ccccc3)C2)C1`
1 to 40 µM

// next record `O=C([C@H](O)c1ccccc1)N1CC2=C(C1)CN(S(=O)(=O)c1cccnc1C(F)(F)F)C2`
1 to 40 µM

// next record `O=C(N1CC2=C(C1)CN(S(=O)(=O)c1ccc(OC(F)F)cc1)C2)C(F)(F)c1ccccc1`
≤ 0.1 µM

// next record O=C(C(O)c1cccc(F)c1)N1CC2=C(C1)CN(S(=O)(=O)c1ccc(OC(F)F)cc1)C2 (centres unmarked)
0.1 to 1 µM

// next record `Cc1ccc(CC(=O)N2CC3=C(C2)CN(S(=O)(=O)c2ccccn2)C3)cn1`
1 to 40 µM
